Biological target: Orexin type 1 (OX1R) receptor (Homo sapiens, UniProt O43613)
Sequence (O43613 1-425): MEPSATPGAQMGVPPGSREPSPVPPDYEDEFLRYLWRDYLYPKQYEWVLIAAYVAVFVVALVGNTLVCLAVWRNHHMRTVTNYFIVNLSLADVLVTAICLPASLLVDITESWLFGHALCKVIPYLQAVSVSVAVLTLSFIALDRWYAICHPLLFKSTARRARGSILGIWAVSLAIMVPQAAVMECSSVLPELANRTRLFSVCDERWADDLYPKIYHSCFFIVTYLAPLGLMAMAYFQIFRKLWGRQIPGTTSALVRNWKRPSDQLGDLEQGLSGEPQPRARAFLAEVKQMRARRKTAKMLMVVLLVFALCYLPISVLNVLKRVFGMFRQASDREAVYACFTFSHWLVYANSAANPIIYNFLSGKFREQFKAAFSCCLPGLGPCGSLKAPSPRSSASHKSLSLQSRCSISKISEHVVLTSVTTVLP
Assay: In vitro orexin antagonism assay: intracellular calcium measurement (FLIPR), orexin-A 3 nM as agonist
Settings: first value of IC50/Kb cell
PROPERTY: IC50 (nM)

Reference set, count: 4
>>> print(df.to_string())
                  compound_structure_string  reading
0  O=C(c1c(-c2ccccc2)nc2ccc(F)cn12)N1CCC[C@H]1Cn1ccc(-c2ccc(F)cc2)n1        9
1  O=C(c1c(-c2ncccn2)nn2ccccc12)N1[C@@H]2CC[C@@H](C2)[C@H]1COc1ccc(C(F)(F)F)cn1      190
2  O=C(c1nn2c(c1-c1ccccc1)OCCC2)N1CCC[C@H]1Cn1ccc(-c2ccccc2)n1        9
3  O=C(c1nn2c(c1-c1ccccn1)COCC2)N1CCC[C@H]1Cn1cc(-c2ccccn2)cn1      220

[1] C[C@@]1(Cn2ccc(-c3ccccn3)n2)CCCN1C(=O)c1nc2ccccn2c1-c1ccccc1
[2] [2H]C1([2H])CC[C@@]([2H])(Cn2ccc(-c3ccc(F)cc3)n2)N1C(=O)c1c(-c2ncccn2)nn2ccccc12
Prompt line: Lower value of IC50 belongs to which: 1 or 2 ? Answer by quoting the chosen item's label.
Response line: 2
